Origin of the recorded values: paper PMC4033665

Below: a set of entries, each annotated with reported improved binding in FP assay compared to 3.
# Target under test: human Mcl-1 (Homo sapiens, UniProt Q07820)
# Sequence (Q07820 171-327): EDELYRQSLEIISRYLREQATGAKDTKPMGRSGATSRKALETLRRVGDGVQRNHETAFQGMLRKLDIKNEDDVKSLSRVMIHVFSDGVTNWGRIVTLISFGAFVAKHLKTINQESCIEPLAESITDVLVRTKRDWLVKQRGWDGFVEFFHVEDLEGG
# Format: binding
# Experimental parameters: reference compound 3
Value expressed in fold; do not type the unit.

INSERT INTO results (smiles_structure, result) VALUES
  ('O=C(O)CSc1cc(NS(=O)(=O)c2cccc(-c3ccccc3)c2)c2ccccc2c1O', 10);

Incoming: API: value(readout= improved binding in FP assay compared to 3, system= human Mcl-1 (Homo sapiens, UniProt Q07820), query= `O=C(O)CSc1cc(NS(=O)(=O)c2ccc(-c3ccc(Cl)cc3)cc2)c2ccccc2c1O` )
Outgoing: 21

Incoming: API: value(readout= improved binding in FP assay compared to 3, system= human Mcl-1 (Homo sapiens, UniProt Q07820), query= `O=C(O)CSc1cc(NS(=O)(=O)c2ccc(Br)cc2)c2ccccc2c1O` )
Outgoing: 7

Incoming: API: value(readout= improved binding in FP assay compared to 3, system= human Mcl-1 (Homo sapiens, UniProt Q07820), query= `CC(C)(C)c1ccc(S(=O)(=O)Nc2cc(SCC(=O)O)c(O)c3ccccc23)cc1` )
Outgoing: 4.5

* * *

# Tested on: Eμ-myc/Mcl-1 lymphoma cells
# Assay name: cell death
# Assay type: cell-based, mice
# Experimental parameters: 15–18 h, increasing concentrations
Assay readout: sensitivity of lymphoma cells overexpressing Mcl-1 to induced cell death

INSERT INTO results (smiles_structure, result) VALUES
  ('O=C(O)CSc1cc(NS(=O)(=O)c2ccc(-c3ccc(Cl)cc3)cc2)c2ccccc2c1O', 'significantly sensitive'),
  ('O=C(O)CSc1cc(NS(=O)(=O)c2ccc(Oc3ccccc3)cc2)c2ccccc2c1O', 'significantly sensitive');

* * *

Below: a set of entries, each annotated with reported improved binding in SPR assay compared to 3.
# Target under test: human Mcl-1 (Homo sapiens)
# Format: binding
# Experimental parameters: reference compound 3
Value expressed in fold; do not type the unit.

INSERT INTO measurements (smiles_structure, unit_of_measurement, result) VALUES
  ('O=C(O)CSc1cc(NS(=O)(=O)c2ccc(Br)cc2)c2ccccc2c1O', 'fold', 5),
  ('O=C(O)CSc1cc(NS(=O)(=O)c2cccc(-c3ccccc3)c2)c2ccccc2c1O', 'fold', 6),
  ('O=C(O)CSc1cc(NS(=O)(=O)c2ccc(-c3ccc(Cl)cc3)cc2)c2ccccc2c1O', 'fold', 14),
  ('CC(C)(C)c1ccc(S(=O)(=O)Nc2cc(SCC(=O)O)c(O)c3ccccc23)cc1', 'fold', 1.5);

Please find the next compound below.
Incoming: Could you tell me which improved binding in SPR assay compared to 3 is on file for `O=C(O)CSc1cc(NS(=O)(=O)c2ccc(-c3ccccc3)cc2)c2ccccc2c1O` ?
Outgoing: 6
